tested on: ATP; assay: switch fluorescence ratio, 500 uM ATP over buffer (Cy3 cluster intensity, sum of 5 cycles each) (fold (ratio)); higher = stronger signal-on switching upon ATP binding; sequences stand for … in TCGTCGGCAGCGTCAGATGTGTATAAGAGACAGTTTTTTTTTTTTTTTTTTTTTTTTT…TC; conditions: aptamer strand: ATP DNA aptamer (quencher-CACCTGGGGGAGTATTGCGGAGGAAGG + anchor), 100 nM annealed; ATP concentration: 500 uM;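 note: ATP exposure 15 min at 22 °C before imaging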
quantity.kind: switch fluorescence ratio
Returns: the value as a bare number; no unit string appended.

{"columns": ["sequence.content", "test.system", "recorded.value"],
 "data": [
  ["TGGCCTGCTG", "ATP", 0.992],
  ["ATCGGGCGTA", "ATP", 1.01],
  ["GGGTGAGGCG", "ATP", 0.981]
]}

Now for another entry.
Input: API: value(readout=switch fluorescence ratio, system=ATP) for record CAGGTCGCGG;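 note: ATP exposure 15 min at 22 °C before imaging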
Output: 1.01
